Ref: patent EP0539209A1

target_entity: 5-HT1A receptor (Homo sapiens, UniProt P08908)
Sequence (P08908 1-422): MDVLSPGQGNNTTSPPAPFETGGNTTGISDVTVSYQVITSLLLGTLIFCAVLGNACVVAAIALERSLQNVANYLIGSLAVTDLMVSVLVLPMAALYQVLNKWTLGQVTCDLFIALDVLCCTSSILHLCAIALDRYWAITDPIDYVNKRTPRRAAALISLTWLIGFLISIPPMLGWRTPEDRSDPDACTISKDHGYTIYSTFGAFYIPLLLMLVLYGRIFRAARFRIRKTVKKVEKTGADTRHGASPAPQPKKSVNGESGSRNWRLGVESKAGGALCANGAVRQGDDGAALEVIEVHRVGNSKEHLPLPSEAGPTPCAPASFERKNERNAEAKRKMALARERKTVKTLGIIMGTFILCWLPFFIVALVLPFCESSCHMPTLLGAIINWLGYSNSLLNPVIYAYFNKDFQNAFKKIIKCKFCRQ
assay_info: CNS Receptor Binding Assay, 5-HT1A
measurement_context: PART I - TABLE I; test compounds at 1 microMolar concentration competing with radioligand; 100 = binds as well as standard 8-OH-DPAT
5-HT1A % inhibition: recorded values
// note: answer is a bare numeric in %

Examples with answers:
CCCN1CCC2Cc3c(C#N)cccc3C2CC1 (single isomer, unassigned)	17
CCCN1CCC2Cc3cccc(C(N)=O)c3C2CC1 (single isomer, unassigned) [compound 4]	21
CCCN1CCC2Cc3c(C(N)=O)cccc3C2CC1 (single isomer, unassigned)	18

// below: 5-HT1A % inhibition requested for another molecule
Summary: CCCN1CCC2Cc3cccc(C(N)=O)c3C2CC1 (single isomer, unassigned) [compound 3] , 5-HT1A receptor (Homo sapiens, UniProt P08908), 5-HT1A % inhibition = 93

---

Dopamine - D2 % inhibition: recorded values
target_entity: Dopamine - D2 (Homo sapiens)
Sequence (P14416 whole entry): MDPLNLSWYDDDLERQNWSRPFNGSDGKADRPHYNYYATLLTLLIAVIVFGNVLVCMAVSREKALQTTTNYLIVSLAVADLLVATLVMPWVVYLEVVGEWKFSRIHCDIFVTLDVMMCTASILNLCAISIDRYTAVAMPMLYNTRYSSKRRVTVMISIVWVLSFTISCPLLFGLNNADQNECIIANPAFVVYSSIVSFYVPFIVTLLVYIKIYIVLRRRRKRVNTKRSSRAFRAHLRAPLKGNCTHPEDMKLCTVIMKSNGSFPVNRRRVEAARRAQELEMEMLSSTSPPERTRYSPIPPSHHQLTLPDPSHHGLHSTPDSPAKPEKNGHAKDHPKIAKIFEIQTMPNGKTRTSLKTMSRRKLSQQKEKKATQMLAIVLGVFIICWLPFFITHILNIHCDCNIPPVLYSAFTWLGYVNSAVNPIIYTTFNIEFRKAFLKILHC
assay_info: CNS Receptor Binding Assay, dopamine D2
measurement_context: PART I - TABLE I; test compounds at 1 microMolar concentration
Excerpt: CNS Receptor Binding Assay (PART I - TABLE I): The Central Nervous System Binding Assay measures the percent inhibibition from experiments employing test compounds at 1 microMolar concentration competing with various radioligands for binding to whole brain membranes, membranes prepared from specific brain structures, or membranes prepared from cell lines expressing cloned receptors. When percent inhibition is equal to 100 the test compound binds as well as the standard compound. […]
// note: answer is a bare numeric in %

CCCN1CCC2Cc3cccc(C(N)=O)c3C2CC1 (single isomer, unassigned) [compound 4]	2
CCCN1CCC2Cc3cccc(C(N)=O)c3C2CC1 (single isomer, unassigned) [compound 3]	45

In plain terms, CCCN1CCC2Cc3c(C(N)=O)cccc3C2CC1 (single isomer, unassigned) has a documented Dopamine - D2 % inhibition of 31

In plain terms, CCCN1CCC2Cc3c(C#N)cccc3C2CC1 (single isomer, unassigned) has a documented Dopamine - D2 % inhibition of 22
